meta.source: ChEMBL document CHEMBL3259641

EC50 values by entry
target: Nuclear receptor ROR-alpha (Homo sapiens); experiment: Inverse agonist activity at human GAL4-fused RORa expressed in HEK293 cells after 5 hrs by luciferase reporter gene based transcriptional assay
Sequence (P35398 whole entry, the tested form may be a part): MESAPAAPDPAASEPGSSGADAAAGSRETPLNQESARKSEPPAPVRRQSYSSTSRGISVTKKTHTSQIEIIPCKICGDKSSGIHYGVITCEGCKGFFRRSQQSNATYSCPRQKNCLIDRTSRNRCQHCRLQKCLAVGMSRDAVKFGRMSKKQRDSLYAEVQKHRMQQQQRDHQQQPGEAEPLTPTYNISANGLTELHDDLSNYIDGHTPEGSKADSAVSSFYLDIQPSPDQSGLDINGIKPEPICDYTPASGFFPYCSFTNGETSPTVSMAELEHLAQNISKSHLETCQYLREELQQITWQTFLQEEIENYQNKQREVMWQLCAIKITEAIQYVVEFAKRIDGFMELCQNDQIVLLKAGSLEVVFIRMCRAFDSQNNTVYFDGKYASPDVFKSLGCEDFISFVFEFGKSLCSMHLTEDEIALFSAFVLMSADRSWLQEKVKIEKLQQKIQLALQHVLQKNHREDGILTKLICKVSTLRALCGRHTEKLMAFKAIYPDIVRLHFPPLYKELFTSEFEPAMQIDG
Give the number; µM is assumed, so skip it.

// below: answered compounds
CC(C)CN(Cc1ccc(-c2ccc(S(C)(=O)=O)cc2)s1)S(=O)(=O)Cc1ccccc1 ... 2.8
CC(C)CN(Cc1ccc(-c2cccc(S(C)(=O)=O)c2)s1)S(=O)(=O)Cc1ccccc1 ... 4.2

Ask | For the compound "CC(C)CN(Cc1ccc(-c2ccc(NS(C)(=O)=O)cc2)cc1)S(=O)(=O)Cc1ccccc1" , what EC50 is on record?
Reply | 3.8

* * *

biological target: UniProt P51449
Sequence (P51449 whole entry, the tested form may be a part): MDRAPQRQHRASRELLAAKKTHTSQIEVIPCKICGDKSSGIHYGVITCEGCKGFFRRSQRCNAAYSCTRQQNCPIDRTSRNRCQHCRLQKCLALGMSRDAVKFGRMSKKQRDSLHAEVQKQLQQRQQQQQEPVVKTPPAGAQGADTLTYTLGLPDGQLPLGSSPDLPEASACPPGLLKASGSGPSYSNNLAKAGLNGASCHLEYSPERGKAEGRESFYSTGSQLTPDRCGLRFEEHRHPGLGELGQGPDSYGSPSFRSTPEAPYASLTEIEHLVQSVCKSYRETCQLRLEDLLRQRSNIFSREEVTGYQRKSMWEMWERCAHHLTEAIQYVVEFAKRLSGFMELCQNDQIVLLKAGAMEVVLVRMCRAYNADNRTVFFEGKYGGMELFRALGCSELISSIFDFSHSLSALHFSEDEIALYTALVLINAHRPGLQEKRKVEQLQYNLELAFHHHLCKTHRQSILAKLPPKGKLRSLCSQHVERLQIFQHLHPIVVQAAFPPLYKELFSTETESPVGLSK
pIC50: −log10 of the molar value.
quantity.kind: pIC50

Ask | Recall the recorded pIC50 for "CC(C)CN(Cc1ccc(-c2ccc(C#N)nc2)s1)S(=O)(=O)Cc1ccccc1" with UniProt P51449 and state it.
Reply | < 5.00

* * *

Recorded EC50, one value per entry.
Target: UniProt Q92753
Sequence (Q92753 whole entry): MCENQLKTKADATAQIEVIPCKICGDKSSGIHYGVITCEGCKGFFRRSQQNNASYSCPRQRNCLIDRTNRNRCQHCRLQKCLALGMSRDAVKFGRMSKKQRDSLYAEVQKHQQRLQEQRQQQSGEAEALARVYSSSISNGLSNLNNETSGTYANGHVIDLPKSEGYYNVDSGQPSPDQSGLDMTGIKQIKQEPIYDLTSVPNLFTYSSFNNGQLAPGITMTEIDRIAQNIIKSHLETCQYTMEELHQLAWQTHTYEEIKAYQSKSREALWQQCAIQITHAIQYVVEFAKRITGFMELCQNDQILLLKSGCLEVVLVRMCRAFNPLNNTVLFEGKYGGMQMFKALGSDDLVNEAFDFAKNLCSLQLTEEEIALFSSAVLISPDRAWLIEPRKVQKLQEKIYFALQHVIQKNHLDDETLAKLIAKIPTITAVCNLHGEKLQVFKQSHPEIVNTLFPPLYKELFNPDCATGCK
Test: Inverse agonist activity at human GAL4-fused RORb expressed in HEK293 cells after 5 hrs by luciferase reporter gene based transcriptional assay
Numeric answer only, unit µM assumed.

Here's what some known entries look like.
CC(C)CN(Cc1ccc(-c2ccc(S(C)(=O)=O)cc2)s1)S(=O)(=O)Cc1ccccc1 ... 2.2
CC(C)CN(Cc1ccc(-c2ccc(NS(C)(=O)=O)cc2)cc1)S(=O)(=O)Cc1ccccc1 ... 3.7

Now let's try a different one.
Ask | Recall the recorded EC50 for "CC(C)CN(Cc1ccc(-c2cccc(S(C)(=O)=O)c2)s1)S(=O)(=O)Cc1ccccc1" with UniProt Q92753 and state it.
Reply | 5

* * *

molecular target: UniProt P51449; assay: Inverse agonist activity at an N-terminal 6xHis-GST-tag human RORc-LBD assessed as inhibition of recruitment of the SRC1 co-activator peptide after 3 hrs by time-resolved FRET assay
quantity.kind: EC50

CC(C)CN(Cc1cccc(-c2ccc(S(C)(=O)=O)cc2)c1)S(=O)(=O)Cc1ccccc1 ... > 10 µM

# input for lookup
Ask | Quick one: EC50 for "CC(C)CN(Cc1cnc(-c2ccc(S(C)(=O)=O)cc2)s1)S(=O)(=O)Cc1ccccc1" ?
Reply | > 10 µM

* * *

target: Oxysterols receptor LXR-beta (Homo sapiens); assay: Inverse agonist activity at human GAL4-fused LXRbeta expressed in HEK293 cells assessed as inhibition of T0901317-induced transcriptional activity after 5 hrs by luciferase reporter gene assay
Sequence (P55055 whole entry, the tested form may be a part): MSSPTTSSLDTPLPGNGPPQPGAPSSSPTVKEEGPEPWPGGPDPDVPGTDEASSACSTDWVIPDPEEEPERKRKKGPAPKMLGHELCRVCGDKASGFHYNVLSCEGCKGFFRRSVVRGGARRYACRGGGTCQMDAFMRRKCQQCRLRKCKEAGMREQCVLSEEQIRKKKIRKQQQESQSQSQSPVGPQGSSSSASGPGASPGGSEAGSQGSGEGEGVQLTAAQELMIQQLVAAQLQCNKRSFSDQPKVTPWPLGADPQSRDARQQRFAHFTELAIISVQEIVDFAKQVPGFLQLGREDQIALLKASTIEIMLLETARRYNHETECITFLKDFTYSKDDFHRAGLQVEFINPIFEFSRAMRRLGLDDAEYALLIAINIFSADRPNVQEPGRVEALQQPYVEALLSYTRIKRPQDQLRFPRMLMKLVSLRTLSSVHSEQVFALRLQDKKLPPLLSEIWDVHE
quantity.kind: EC50

Known EC50 results, listed for orientation:
CC(C)CN(Cc1ccc(-c2ccc(NS(C)(=O)=O)cc2)cc1)S(=O)(=O)Cc1ccccc1 ... 3.8 µM
CC(C)CN(Cc1ccc(-c2ccc(S(C)(=O)=O)cc2)s1)S(=O)(=O)Cc1ccccc1 ... 3.9 µM

Now, please, on to the next compound.
Ask | Which EC50 is listed for "CC(C)CN(Cc1ccc(-c2ccc(C(N)=O)cc2)cc1)S(=O)(=O)Cc1ccccc1" ?
Reply | > 10 µM
